Target: human ether-à-go-go-related gene (hERG) potassium channel (human);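 note: peak tail current of the secondary pulse compared with the same well before compound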
Sequence (Q12809 whole entry, looked up): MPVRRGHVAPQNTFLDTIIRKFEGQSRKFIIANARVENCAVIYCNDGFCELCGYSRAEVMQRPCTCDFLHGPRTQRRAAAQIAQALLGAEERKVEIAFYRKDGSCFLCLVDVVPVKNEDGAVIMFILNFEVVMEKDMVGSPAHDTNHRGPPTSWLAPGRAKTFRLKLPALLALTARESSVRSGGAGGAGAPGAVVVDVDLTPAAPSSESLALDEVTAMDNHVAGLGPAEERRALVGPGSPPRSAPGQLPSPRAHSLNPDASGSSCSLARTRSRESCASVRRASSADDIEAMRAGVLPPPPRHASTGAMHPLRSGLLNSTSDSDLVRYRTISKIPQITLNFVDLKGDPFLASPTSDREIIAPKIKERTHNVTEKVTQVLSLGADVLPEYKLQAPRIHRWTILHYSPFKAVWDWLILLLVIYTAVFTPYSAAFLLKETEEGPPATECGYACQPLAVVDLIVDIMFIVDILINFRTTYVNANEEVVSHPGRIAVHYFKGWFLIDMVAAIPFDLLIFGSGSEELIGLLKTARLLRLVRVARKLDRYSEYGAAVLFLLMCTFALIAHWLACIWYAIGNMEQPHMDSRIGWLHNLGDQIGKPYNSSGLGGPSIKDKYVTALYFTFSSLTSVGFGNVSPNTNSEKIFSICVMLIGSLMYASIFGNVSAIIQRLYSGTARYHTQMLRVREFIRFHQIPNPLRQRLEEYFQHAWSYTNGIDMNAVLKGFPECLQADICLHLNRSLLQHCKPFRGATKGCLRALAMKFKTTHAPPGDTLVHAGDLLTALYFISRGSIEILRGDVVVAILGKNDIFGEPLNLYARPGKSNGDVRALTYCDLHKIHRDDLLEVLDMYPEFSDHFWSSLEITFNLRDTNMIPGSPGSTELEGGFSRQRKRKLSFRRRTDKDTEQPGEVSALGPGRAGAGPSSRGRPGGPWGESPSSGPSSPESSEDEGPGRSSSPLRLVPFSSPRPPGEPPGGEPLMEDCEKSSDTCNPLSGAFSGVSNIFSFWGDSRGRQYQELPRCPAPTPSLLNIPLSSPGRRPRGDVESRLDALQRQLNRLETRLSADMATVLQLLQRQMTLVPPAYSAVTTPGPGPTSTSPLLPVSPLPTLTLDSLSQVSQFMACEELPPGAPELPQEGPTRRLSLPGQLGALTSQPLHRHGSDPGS
Test: primary screen, population patch clamp on CHO cells stably expressing hERG; higher = less effect of the substance
Among all 310,000 compounds or so, about 14,000 (4.5%) showed an effect of 50% or more. The effect is printed as a negative number. What follows is part of a selection rich in strong results, with near analogues and random picks from the rest.
Readout type: hERG current change (%, negative = inhibition) at 10uM (%)

- Molecular string: "O=C(c1csc2c1CCCC2)N1CCN(c2ncccn2)CC1"
  Result units: "%"
  Recorded value: -25.1
- Molecular string: "Cc1ccc(O)c(-c2cc3ccccc3[nH]2)c1"
  Result units: "%"
  Recorded value: -15.8
- Molecular string: "Nc1nonc1-n1nnc(C(=O)N/N=C/c2ccc(Br)cc2)c1CSC1=NCCS1"
  Result units: "%"
  Recorded value: -3.36
- Molecular string: "COCCCn1c(SCC(=O)Nc2nnc(C)s2)nnc1-c1ccoc1C"
  Result units: "%"
  Recorded value: 4.33
- Molecular string: "Cn1nnnc1SCC(=O)N1c2ccccc2Sc2ccc(Cl)cc21"
  Result units: "%"
  Recorded value: -16.4
- Molecular string: "Clc1ccc(-n2ncc3c(NCc4cccnc4)ncnc32)cc1Cl"
  Result units: "%"
  Recorded value: 14.6
- Molecular string: "COC(=O)c1ccccc1NC(=O)N1CCN(C/C=C/c2ccccc2)CC1"
  Result units: "%"
  Recorded value: -45.1
- Molecular string: "O=C(NCc1ccc(F)cc1)c1cccc2c1C(=O)N(Cc1cccnc1)C2"
  Result units: "%"
  Recorded value: -61.8
- Molecular string: "COc1ccccc1CNC(=O)c1cccc2c1C(=O)N(Cc1cccnc1)C2"
  Result units: "%"
  Recorded value: -70.1
- Molecular string: "O=C(NNC(=O)c1cccnc1)NC12CC3CC(CC(C3)C1)C2"
  Result units: "%"
  Recorded value: -2.41
- Molecular string: "COC(CNC(=O)c1cccc2c1C(=O)N(Cc1cccnc1)C2)OC"
  Result units: "%"
  Recorded value: -15.3
- Molecular string: "COc1cc(NC(=O)c2cccc3c2C(=O)N(Cc2cccnc2)C3)cc(OC)c1OC"
  Result units: "%"
  Recorded value: -79.2
